- Tested on: Saccharomyces cerevisiae
- Method Summary: protein stability index of tFT-peptide fusion (C-terminal peptide) (PSI (0-1 scale)); higher = more stable (slower turnover);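 further: PSI is a weighted mean of sequencing reads over stability bins, variants kept only with over 10 reads, mCherry proximal and sfGFP distal, peptide attached via GGGS linker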
- Cond: genetic background: doa10 deletion; temperature: 30 C
Could you please report measured protein stability index for the items listed next?
Reply briefly: the number, and no unit.

Tell me the measured protein stability index of `FCVGVVIQLSGV` , please.
0.296

Tell me the measured protein stability index of `GPFGVGALVCCM` , please.
0.304

Tell me the measured protein stability index of `CGPLLVTLVLSM` , please.
0.304

###

Could you please report measured protein stability index for the items listed next?
- Test system: Saccharomyces cerevisiae
- Method Summary: protein stability index of tFT-peptide fusion (C-terminal peptide) (PSI (0-1 scale)); higher = more stable (slower turnover)
- Cond: genetic background: wild type; temperature: 30 C
Reply briefly: the number, and no unit.

Tell me the measured protein stability index of `EVDHLPHQVFRY` , please.
0.667

Tell me the measured protein stability index of `SPTLPLTRRHPR` , please.
0.718

Tell me the measured protein stability index of `KEEAKRPQSNET` , please.
0.706

Tell me the measured protein stability index of `LNDEKIKGKTTK` , please.
0.732
